Each entry below lists one item and its recorded IC50 value.
Target: angiotensin II type 1 receptor (Oryctolagus cuniculus, UniProt P34976)
Construct: By using a specimen of isolated rabbit blood vessels
Sequence (P34976 1-359): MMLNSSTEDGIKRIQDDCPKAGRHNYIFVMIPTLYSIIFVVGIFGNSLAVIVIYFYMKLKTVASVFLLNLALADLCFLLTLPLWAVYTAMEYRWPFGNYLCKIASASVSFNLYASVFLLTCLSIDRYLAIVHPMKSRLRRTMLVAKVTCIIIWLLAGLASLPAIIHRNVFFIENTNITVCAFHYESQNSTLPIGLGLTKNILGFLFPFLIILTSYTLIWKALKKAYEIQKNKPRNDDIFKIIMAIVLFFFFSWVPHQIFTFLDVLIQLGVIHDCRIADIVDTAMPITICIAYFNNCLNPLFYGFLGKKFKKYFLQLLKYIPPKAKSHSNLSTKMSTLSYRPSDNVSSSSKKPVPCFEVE
Assay: Angiotensin II antagonistic activity in isolated rabbit blood vessels
Settings: angiotensin II (10 nM)-induced contraction of rabbit thoracic aorta ring
// units = µM; emit number, no label

# annotated cases, reported IC50 shown
Lookup: # IC50 lookup, item CCCCc1nc(C)n(-c2ncc(OCc3nc(-c4ccc(Br)o4)oc3C)cn2)c(=O)c1Cc1ccc(-c2ccccc2-c2nnn[nH]2)cc1 [Example 32]
Found: 0.428

Lookup: # IC50 lookup, item CCCCc1nc(C)n(-c2ncc(C(F)(F)F)cc2Cl)c(=O)c1Cc1ccc(-c2ccccc2-c2nnn[nH]2)cc1 [Example 13]
Found: 0.026

Continuing:
Lookup: # IC50 lookup, item CCCCc1nc(C)n(-c2cccc(C(F)(F)F)n2)c(=O)c1Cc1ccc(-c2ccccc2-c2nnn[nH]2)cc1 [Example 12]
Found: 0.23

Lookup: # IC50 lookup, item CCCCc1nc(C)n(-c2ccc(Cl)cn2)c(=O)c1Cc1ccc(-c2ccccc2-c2nnn[nH]2)cc1 [Example 7]
Found: 0.431

###

Target: human PPARγ2 (Homo sapiens, UniProt P37231)
Construct: the amino acids 182 to 505 of human PPARγ2; expressed in transfected cells; host or cells: COS7 cells
Sequence (P37231 182-505): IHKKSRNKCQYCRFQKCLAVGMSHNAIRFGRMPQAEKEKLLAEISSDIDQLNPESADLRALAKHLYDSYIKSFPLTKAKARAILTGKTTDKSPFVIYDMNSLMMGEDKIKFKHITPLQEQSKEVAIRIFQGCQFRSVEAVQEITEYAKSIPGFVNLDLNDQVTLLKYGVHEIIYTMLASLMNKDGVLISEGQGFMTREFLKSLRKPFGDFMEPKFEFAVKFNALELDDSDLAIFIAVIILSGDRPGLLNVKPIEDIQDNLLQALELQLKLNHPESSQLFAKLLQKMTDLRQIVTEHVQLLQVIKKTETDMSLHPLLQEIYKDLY
Sequence (P04386 1-147 partner limits assumed): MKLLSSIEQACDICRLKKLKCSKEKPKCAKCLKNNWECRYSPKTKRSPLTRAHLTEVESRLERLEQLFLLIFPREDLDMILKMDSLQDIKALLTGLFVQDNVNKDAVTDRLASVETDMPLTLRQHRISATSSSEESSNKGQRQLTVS
Assay: PPARγ activation activity, Gal4 chimera luciferase transfection assay using COS7 cells
Assay type: cell-based
Settings: COS-7, 16 h; maximum activity strength relative to the maximum activity of rosiglitazone; COS7 cells; read-out: % MAX vs Rosiglitazone
PARAMETER MEASURED: Emax (%)
// units = %; emit number, no label

# annotated cases, reported Emax shown
Lookup: Write down the reported Emax of CCCCc1nc(C)n(-c2ccc(C(F)(F)F)cn2)c(=O)c1Cc1ccc(-c2ccccc2-c2nnn[nH]2)cc1 , test system: human PPARγ2 (Homo sapiens, UniProt P37231).
Found: 48.6

Lookup: Write down the reported Emax of CCCCc1nc(C)n(-c2ncc(Br)cn2)c(=O)c1Cc1ccc(-c2ccccc2-c2nnn[nH]2)cc1 , test system: human PPARγ2 (Homo sapiens, UniProt P37231).
Found: 35.5

Lookup: Write down the reported Emax of CCCCc1nc(C)n(-c2ncccc2Cl)c(=O)c1Cc1ccc(-c2ccccc2-c2nnn[nH]2)cc1 , test system: human PPARγ2 (Homo sapiens, UniProt P37231).
Found: 20.3

Lookup: Write down the reported Emax of CCCCc1nc(C)n(-c2ccc(F)cn2)c(=O)c1Cc1ccc(-c2ccccc2-c2nnn[nH]2)cc1 , test system: human PPARγ2 (Homo sapiens, UniProt P37231).
Found: 27.6

Lookup: Write down the reported Emax of CCCCc1nc(C)n(-c2nc3ccccc3s2)c(=O)c1Cc1ccc(-c2ccccc2-c2nnn[nH]2)cc1 , test system: human PPARγ2 (Homo sapiens, UniProt P37231).
Found: 39.7

Continuing:
Lookup: Write down the reported Emax of CCCCc1nc(C)n(-c2ncc(OC3CCCCC3)cn2)c(=O)c1Cc1ccc(-c2ccccc2-c2nnn[nH]2)cc1 , test system: human PPARγ2 (Homo sapiens, UniProt P37231).
Found: 28.9

Lookup: Write down the reported Emax of CCCCc1nc(C)n(-c2nc3ccccc3n2C)c(=O)c1Cc1ccc(-c2ccccc2-c2nnn[nH]2)cc1 , test system: human PPARγ2 (Homo sapiens, UniProt P37231).
Found: 31.6

Lookup: Write down the reported Emax of CCCCc1nc(C)n(-c2cccc(Br)n2)c(=O)c1Cc1ccc(-c2ccccc2-c2nnn[nH]2)cc1 , test system: human PPARγ2 (Homo sapiens, UniProt P37231).
Found: 27.7

Lookup: Write down the reported Emax of CCCCc1nc(C)n(-c2ccc(C)cn2)c(=O)c1Cc1ccc(-c2ccccc2-c2nnn[nH]2)cc1 , test system: human PPARγ2 (Homo sapiens, UniProt P37231).
Found: 24.1

Lookup: Write down the reported Emax of CCCCc1nc(C)n(-c2ncc(OCCC)cn2)c(=O)c1Cc1ccc(-c2ccccc2-c2nnn[nH]2)cc1 , test system: human PPARγ2 (Homo sapiens, UniProt P37231).
Found: 22.8

Lookup: Write down the reported Emax of CCCCc1nc(C)n(-c2ccc(Cl)cn2)c(=O)c1Cc1ccc(-c2ccccc2-c2nnn[nH]2)cc1 , test system: human PPARγ2 (Homo sapiens, UniProt P37231).
Found: 54.6

Lookup: Write down the reported Emax of CCCCc1nc(C)n(-c2ccc3ccccc3n2)c(=O)c1Cc1ccc(-c2ccccc2-c2nnn[nH]2)cc1 , test system: human PPARγ2 (Homo sapiens, UniProt P37231).
Found: 55.5

Provenance of the data: patent US8664226B2
